Origin of values: ChEMBL document CHEMBL1156892

test system: Staphylococcus aureus; assay: Antibacterial activity against Staphylococcus aureus ATCC 13709 in cation adjusted Mueller-Hinton broth by […] assay in presence of 50% human serum; format: functional
ENDPOINT: MIC

For orientation, consider the following solved cases.
CC(C)C[C@H](C(=O)N[C@H]1C(=O)N[C@@H](CC(N)=O)C(=O)N[C@H]2C(=O)N[C@H]3C(=O)N[C@H](C(=O)N[C@H](C(=O)O)c4cc(O)cc(O)c4-c4cc3ccc4O)[C@H](O[C@H]3C[C@](C)(N)[C@@H](O)[C@H](C)O3)c3cc(Cl)c(c(Cl)c3)Oc3cc2cc(c3O[C@H]2O[C@@H](CO)[C@@H](O)[C@H](O)[C@H]2O[C@@H]2C[C@@](C)(NCc3ccc(-c4ccc(Cl)cc4)cc3)[C@@H](O)[C@@H](C)O2)Oc2ccc(cc2Cl)[C@H]1O)N(C)C(=O)CCC(P(=O)(O)O)P(=O)(O)O :: > 32 µg/mL
CN[C@H](CC(C)C)C(=O)N[C@H]1C(=O)N[C@@H](CC(N)=O)C(=O)N[C@H]2C(=O)N[C@H]3C(=O)N[C@H](C(=O)N[C@H](C(=O)OCC(=O)Nc4ccc(CC(P(=O)(O)O)P(=O)(O)O)cc4)c4cc(O)cc(O)c4-c4cc3ccc4O)[C@H](O[C@H]3C[C@](C)(N)[C@@H](O)[C@H](C)O3)c3cc(Cl)c(c(Cl)c3)Oc3cc2cc(c3O[C@H]2O[C@@H](CO)[C@@H](O)[C@H](O)[C@H]2O[C@@H]2C[C@@](C)(NCc3ccc(-c4ccc(Cl)cc4)cc3)[C@@H](O)[C@@H](C)O2)Oc2ccc(cc2Cl)[C@H]1O :: > 32 µg/mL

Could you now look at the following molecule, please?
query: Could you share which MIC value was measured for "CN[C@H](CC(C)C)C(=O)N[C@H]1C(=O)N[C@@H](CC(N)=O)C(=O)N[C@H]2C(=O)N[C@H]3C(=O)N[C@H](C(=O)N[C@H](C(=O)OCC(=O)NC(P(=O)(O)O)P(=O)(O)O)c4cc(O)cc(O)c4-c4cc3ccc4O)[C@H](O)c3cc(Cl)c(c(Cl)c3)Oc3cc2cc(c3O[C@H]2O[C@@H](CO)[C@@H](O)[C@H](O)[C@H]2O[C@@H]2C[C@@](C)(N)[C@@H](O)[C@@H](C)O2)Oc2ccc(cc2Cl)[C@H]1O" ?
result: 8 µg/mL
